Catalogue of solubility kinetic at 4 h readings, one per entry.
assay: Aqueous solubility by HPLC-UV; type: physicochemical; conditions: 0.01 M HCl, pH 2, aqueous with cosolvent or surfactant or cyclodextrin
Please respond with the number in µg/mL and leave the unit unwritten.

{"columns": ["Compound", "solubility kinetic at 4 h [µg/mL]"],
 "data": [
  ["Cc1cc(/C=C/C#N)cc(C)c1Nc1ccnc(Nc2ccc(C#N)cc2)n1 [compound 2, rilpivirine, reference compound]", 86.8]
]}

# evaluate next
Ask | // returns reported solubility kinetic at 4 h for input Cc1cc(/C=C/C#N)cc(C)c1Oc1cc(Nc2ccc(C#N)cc2)c(N)cc1C(N)=O [compound 3]
Reply | 2.09
